Each entry below carries its reported viability, T/C.
# Test system: 855422-203-R-J1-PDC complex spheroid growth
# assay_explanation: Anticancer human tumor 855422-203-R-J1-PDC patient-derived bladder carcinoma cell line growth inhibition [AhR]
# condition_summary: second compound 3.16 µM; first compound 0.0316 µM; stronger effect = lower value

molecule	viability, T/C / %
CC1(C)CCC(CN2CCN(c3ccc(C(=O)NS(=O)(=O)c4ccc(NCC5CCOCC5)c([N+](=O)[O-])c4)c(Oc4cnc5[nH]ccc5c4)c3)CC2)=C(c2ccc(Cl)cc2)C1 + Cc1cncc(-c2nc(NCCc3c[nH]c4ccccc34)c3ncn(C(C)C)c3n2)c1	76.2
COc1cc(C2c3cc4c(cc3C(OC3OC5COC(C)OC5C(O)C3O)C3COC(=O)C23)OCO4)cc(OC)c1O (stereo not given) + CC(CO)NC(=O)c1cc(-c2ccc(Cl)cc2)nn(-c2cnn(C)c2)c1=O	89.5
CC[C@@]1(O)C(=O)OCc2c1cc1n(c2=O)Cc2cc3c(CN(C)C)c(O)ccc3nc2-1 + Cc1ccccc1N=Nc1ccc(NC(=O)c2ccnn2C)c(C)c1	49.9
COc1cccc2c1C(=O)c1c(O)c3c(c(O)c1C2=O)CC(O)(C(=O)CO)CC3OC1CC(N)C(O)C(C)O1 (stereo not given) + Cc1cncc(-c2nc(NCCc3c[nH]c4ccccc34)c3ncn(C(C)C)c3n2)c1	17.9
O=C(C=Cc1cccc(S(=O)(=O)Nc2ccccc2)c1)NO + Cc1ccccc1N=Nc1ccc(NC(=O)c2ccnn2C)c(C)c1	96.8

---

# System: 855422-203-R-J1-PDC complex spheroid growth
# assay_explanation: Anticancer human tumor 855422-203-R-J1-PDC cell line growth inhibition [AhR];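 further: spheroids exposed to agents for seven days before readout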;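 on viability, T/C: percent of DMSO vehicle control luminescence viability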
# condition_summary: second compound 0.316 µM; first compound 0.0316 µM; stronger effect = lower value
outcome_measure: viability, T/C (%)

molecule	recorded_measurement
CC1COCCN1c1cc(C2(S(C)(=N)=O)CC2)nc(-c2ccnc3[nH]ccc23)n1 (stereo not drawn) + Cc1cncc(-c2nc(NCCc3c[nH]c4ccccc34)c3ncn(C(C)C)c3n2)c1	84.1
CC1COCCN1c1cc(C2(S(C)(=N)=O)CC2)nc(-c2ccnc3[nH]ccc23)n1 (stereo not drawn) + CC(CO)NC(=O)c1cc(-c2ccc(Cl)cc2)nn(-c2cnn(C)c2)c1=O	92.2
COc1cc(C2c3cc4c(cc3C(OC3OC5COC(C)OC5C(O)C3O)C3COC(=O)C23)OCO4)cc(OC)c1O (stereo not drawn) + CC(CO)NC(=O)c1cc(-c2ccc(Cl)cc2)nn(-c2cnn(C)c2)c1=O	94.2
COc1cc(Nc2ncc3c(n2)-c2ccc(Cl)cc2C(c2c(F)cccc2OC)=NC3)ccc1C(=O)O + Cc1ccccc1N=Nc1ccc(NC(=O)c2ccnn2C)c(C)c1	105
NS(=O)(=O)OCC1CC(n2ccc3c(NC4CCc5ccccc54)ncnc32)CC1O (stereo not drawn) + Cc1ccccc1N=Nc1ccc(NC(=O)c2ccnn2C)c(C)c1	102
Nc1ncn(C2CC(O)C(CO)O2)c(=O)n1 (stereo not drawn) + CC(CO)NC(=O)c1cc(-c2ccc(Cl)cc2)nn(-c2cnn(C)c2)c1=O	93.3
CC1COCCN1c1cc(-c2ccnn2C)c2ccnc(-c3ccn[nH]3)c2n1 (stereo not drawn) + Cc1ccccc1N=Nc1ccc(NC(=O)c2ccnn2C)c(C)c1	97.5
COc1ccc([C@@H](O)c2cc(-c3ncnc4cc(N5CCOCC5)ccc34)c(F)cc2Cl)nn1 + Cc1cncc(-c2nc(NCCc3c[nH]c4ccccc34)c3ncn(C(C)C)c3n2)c1	97.1
O=C(C=Cc1cccc(S(=O)(=O)Nc2ccccc2)c1)NO + Cc1ccccc1N=Nc1ccc(NC(=O)c2ccnn2C)c(C)c1	105
COc1cccc2c1C(=O)c1c(O)c3c(c(O)c1C2=O)CC(O)(C(=O)CO)CC3OC1CC(N)C(O)C(C)O1 (stereo not drawn) + CC(CO)NC(=O)c1cc(-c2ccc(Cl)cc2)nn(-c2cnn(C)c2)c1=O	31.6
Nc1ccccc1NC(=O)c1ccc(CNC(=O)OCc2cccnc2)cc1 + CC(CO)NC(=O)c1cc(-c2ccc(Cl)cc2)nn(-c2cnn(C)c2)c1=O	92.2
Nc1ccn(C2OC(CO)C(O)C2(F)F)c(=O)n1 (stereo not drawn) + Cc1ccccc1N=Nc1ccc(NC(=O)c2ccnn2C)c(C)c1	113
CC1(C)CCC(CN2CCN(c3ccc(C(=O)NS(=O)(=O)c4ccc(NCC5CCOCC5)c([N+](=O)[O-])c4)c(Oc4cnc5[nH]ccc5c4)c3)CC2)=C(c2ccc(Cl)cc2)C1 + CC(CO)NC(=O)c1cc(-c2ccc(Cl)cc2)nn(-c2cnn(C)c2)c1=O	97.3
NS(=O)(=O)OCC1CC(n2ccc3c(NC4CCc5ccccc54)ncnc32)CC1O (stereo not drawn) + Cc1cncc(-c2nc(NCCc3c[nH]c4ccccc34)c3ncn(C(C)C)c3n2)c1	96.5
O=C(c1cc(Cc2n[nH]c(=O)c3ccccc23)ccc1F)N1CCN(C(=O)C2CC2)CC1 + Cc1ccccc1N=Nc1ccc(NC(=O)c2ccnn2C)c(C)c1	102
Cn1ncnc1C1c2n[nH]c(=O)c3cc(F)cc(c23)NC1c1ccc(F)cc1 (stereo not drawn) + Cc1ccccc1N=Nc1ccc(NC(=O)c2ccnn2C)c(C)c1	92.6
CC[C@@]1(O)C(=O)OCc2c1cc1n(c2=O)Cc2cc3c(CN(C)C)c(O)ccc3nc2-1 + Cc1cncc(-c2nc(NCCc3c[nH]c4ccccc34)c3ncn(C(C)C)c3n2)c1	52.2
COc1cc(Nc2ncc3c(n2)-c2ccc(Cl)cc2C(c2c(F)cccc2OC)=NC3)ccc1C(=O)O + Cc1cncc(-c2nc(NCCc3c[nH]c4ccccc34)c3ncn(C(C)C)c3n2)c1	98.7
CC1COCCN1c1cc(-c2ccnn2C)c2ccnc(-c3ccn[nH]3)c2n1 (stereo not drawn) + CC(CO)NC(=O)c1cc(-c2ccc(Cl)cc2)nn(-c2cnn(C)c2)c1=O	78.5
CC(C)c1c(-c2ccccc2)nc2c(C#N)c[nH]n2c1=O + Cc1cncc(-c2nc(NCCc3c[nH]c4ccccc34)c3ncn(C(C)C)c3n2)c1	90.1
COc1cccc2c1C(=O)c1c(O)c3c(c(O)c1C2=O)CC(O)(C(=O)CO)CC3OC1CC(N)C(O)C(C)O1 (stereo not drawn) + Cc1cncc(-c2nc(NCCc3c[nH]c4ccccc34)c3ncn(C(C)C)c3n2)c1	22.4
NS(=O)(=O)OCC1CC(n2ccc3c(NC4CCc5ccccc54)ncnc32)CC1O (stereo not drawn) + CC(CO)NC(=O)c1cc(-c2ccc(Cl)cc2)nn(-c2cnn(C)c2)c1=O	90.5
COc1ccc([C@@H](O)c2cc(-c3ncnc4cc(N5CCOCC5)ccc34)c(F)cc2Cl)nn1 + CC(CO)NC(=O)c1cc(-c2ccc(Cl)cc2)nn(-c2cnn(C)c2)c1=O	96.4

---

# Tested on: 855422-203-R-J1-PDC complex spheroid growth
# assay_explanation: Anticancer human tumor 855422-203-R-J1-PDC cell line growth inhibition [AhR];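 further: spheroids exposed to agents for seven days before readout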
# condition_summary: curve of first compound; second compound 10 µM
outcome_measure: log10(IC50) (log10 of the value in nM)

molecule	study_target	log10(IC50)
O=C(C=Cc1cccc(S(=O)(=O)Nc2ccccc2)c1)NO + Cc1ccccc1N=Nc1ccc(NC(=O)c2ccnn2C)c(C)c1	855422-203-R-J1-PDC complex spheroid growth	3.51
COc1ccc([C@@H](O)c2cc(-c3ncnc4cc(N5CCOCC5)ccc34)c(F)cc2Cl)nn1 + Cc1ccccc1N=Nc1ccc(NC(=O)c2ccnn2C)c(C)c1	855422-203-R-J1-PDC complex spheroid growth	3.79
CC(C)CC(NC(=O)C(Cc1ccccc1)NC(=O)c1cnccn1)B(O)O (configuration not stated) + Cc1ccccc1N=Nc1ccc(NC(=O)c2ccnn2C)c(C)c1	855422-203-R-J1-PDC complex spheroid growth	0.62
NS(=O)(=O)OCC1CC(n2ccc3c(NC4CCc5ccccc54)ncnc32)CC1O (configuration not stated) + CC(CO)NC(=O)c1cc(-c2ccc(Cl)cc2)nn(-c2cnn(C)c2)c1=O	855422-203-R-J1-PDC complex spheroid growth	2.67
CCc1c2c(nc3ccc(O)cc13)-c1cc3c(c(=O)n1C2)COC(=O)[C@]3(O)CC + Cc1ccccc1N=Nc1ccc(NC(=O)c2ccnn2C)c(C)c1	855422-203-R-J1-PDC complex spheroid growth	0.73

---

# Tested on: 855422-203-R-J1-PDC complex spheroid growth
# assay_explanation: Anticancer human tumor 855422-203-R-J1-PDC cell line growth inhibition [AhR];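 further: spheroids exposed to agents for seven days before readout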;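 on viability, T/C: percent of DMSO vehicle control luminescence viability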
# condition_summary: second compound 3.16 µM; first compound 3.16 µM; stronger effect = lower value
Each entry below carries its reported viability, T/C.
outcome_measure: viability, T/C (%)

compound	outcome_measure	recorded_measurement
COc1cccc2c1C(=O)c1c(O)c3c(c(O)c1C2=O)CC(O)(C(=O)CO)CC3OC1CC(N)C(O)C(C)O1 (stereo unspecified) + Cc1cncc(-c2nc(NCCc3c[nH]c4ccccc34)c3ncn(C(C)C)c3n2)c1	viability, T/C	1.19
Nc1ccccc1NC(=O)c1ccc(CNC(=O)OCc2cccnc2)cc1 + Cc1cncc(-c2nc(NCCc3c[nH]c4ccccc34)c3ncn(C(C)C)c3n2)c1	viability, T/C	22.1
COc1ccc([C@@H](O)c2cc(-c3ncnc4cc(N5CCOCC5)ccc34)c(F)cc2Cl)nn1 + Cc1ccccc1N=Nc1ccc(NC(=O)c2ccnn2C)c(C)c1	viability, T/C	77.1
COc1cccc2c1C(=O)c1c(O)c3c(c(O)c1C2=O)CC(O)(C(=O)CO)CC3OC1CC(N)C(O)C(C)O1 (stereo unspecified) + CC(CO)NC(=O)c1cc(-c2ccc(Cl)cc2)nn(-c2cnn(C)c2)c1=O	viability, T/C	0.84
COc1ccc([C@@H](O)c2cc(-c3ncnc4cc(N5CCOCC5)ccc34)c(F)cc2Cl)nn1 + CC(CO)NC(=O)c1cc(-c2ccc(Cl)cc2)nn(-c2cnn(C)c2)c1=O	viability, T/C	69.6
NS(=O)(=O)OCC1CC(n2ccc3c(NC4CCc5ccccc54)ncnc32)CC1O (stereo unspecified) + Cc1cncc(-c2nc(NCCc3c[nH]c4ccccc34)c3ncn(C(C)C)c3n2)c1	viability, T/C	8.33
CC1(C)CCC(CN2CCN(c3ccc(C(=O)NS(=O)(=O)c4ccc(NCC5CCOCC5)c([N+](=O)[O-])c4)c(Oc4cnc5[nH]ccc5c4)c3)CC2)=C(c2ccc(Cl)cc2)C1 + Cc1cncc(-c2nc(NCCc3c[nH]c4ccccc34)c3ncn(C(C)C)c3n2)c1	viability, T/C	69.5
Nc1ccn(C2OC(CO)C(O)C2(F)F)c(=O)n1 (stereo unspecified) + Cc1ccccc1N=Nc1ccc(NC(=O)c2ccnn2C)c(C)c1	viability, T/C	22.3
CC(C)c1c(-c2ccccc2)nc2c(C#N)c[nH]n2c1=O + Cc1ccccc1N=Nc1ccc(NC(=O)c2ccnn2C)c(C)c1	viability, T/C	89.5
CC1COCCN1c1cc(C2(S(C)(=N)=O)CC2)nc(-c2ccnc3[nH]ccc23)n1 (stereo unspecified) + Cc1cncc(-c2nc(NCCc3c[nH]c4ccccc34)c3ncn(C(C)C)c3n2)c1	viability, T/C	44.6
COc1cc(Nc2ncc3c(n2)-c2ccc(Cl)cc2C(c2c(F)cccc2OC)=NC3)ccc1C(=O)O + Cc1cncc(-c2nc(NCCc3c[nH]c4ccccc34)c3ncn(C(C)C)c3n2)c1	viability, T/C	52.2
